- PROTOCOL SUMMARY: Bioconversion of prodrugs in rabbit plasma
- Type: in vitro ADME
- RUN PARAMETERS: 100 μM prodrug, 37 °C, pooled rabbit plasma
QUANTITY NAME: half-life at 100 μM (h)

P. COC(=O)c1cccc(NCc2ccc(OCc3ccc(F)cc3)c(C)c2)c1 [A190-PD-9]
Q. Cc1cc(CNc2cccc(C(=O)OCc3oc(=O)oc3C)c2)ccc1OCc1ccc(F)cc1 [A190-PD-60]
[in] Lowest half-life at 100 μM? choose P or Q Which one? Tell me its label.
[out] Q

a. CCOC(=O)c1cccc(NCc2ccc(OCc3ccc(F)cc3)c(C)c2)c1 [A190-PD-14]
b. Cc1cc(CNc2cccc(C(=O)OC(C)C)c2)ccc1OCc1ccc(F)cc1 [A190-PD-154]
[in] Name the one with the greater half-life at 100 μM value, either a or b as given. # answer = label of selected item
[out] a
